- Method Summary: RP, Waters ACQUITY UPLC HSS T3, 100 × 2.1 mm, 1.8 µm, 30 °C, 0.4 mL/min, estimated dead time 0.55 min; A: water + 0.1% formic acid, pH 3; B: acetonitrile + 0.1% formic acid, pH 3; gradient (min/%B) 0/0 2/0 15/100 22/100 22.1/0 26/0
- Condition Parameters: stereoisomer not certain
Classification by LC retention time | ranges: bin 0 = under 8 min, bin 1 = from 8 min up to 10 min, bin 2 = 10 min and over

Please review the following examples before continuing.
1. COc1cc(C=CC(=O)O)cc(OC)c1O = bin 1
2. COc1c(O)cc(C(=O)O)cc1OS(=O)(=O)O [4-O-methylgallic acid 3-O-sulfate] = bin 0
3. Oc1ccc(C=Cc2cc(O)cc(O)c2)cc1 = bin 2
4. C[n+]1cccc(C(=O)[O-])c1 = bin 0
5. O=C(O)c1ccccc1O = bin 2

Prompt: Form field 'band' for O=C(O)CCc1cccc(O)c1 [3-(3-hydroxyphenyl)propanoic acid]
Response: bin 1

Prompt: Request: O=C1c2c(O)cc(O)cc2OC(c2ccc(O)c(O)c2)C1O (stereo not given)
Response: bin 1

Prompt: Okay, and Cn1cnc2c1c(=O)[nH]c(=O)n2C ?
Response: bin 0

====

- Method Summary: RP, Merck LiChrospher RP-18, 250 × 4 mm, 5 µm, 35 °C, 0.3 mL/min, estimated dead time 6.7 min; A: water + 0.5% formic acid; B: acetonitrile + 0.5% formic acid; gradient (min/%B) 0/5 10/5 30/15 45/20 65/20 95/54 110/63 115/5 135/5
- Condition Parameters: stereoisomer not certain
Readings of LC retention time for the listed molecules
Report the figure in min without appending any unit label.

Prompt: Find the recorded LC retention time belonging to O=C(O)c1ccccc1 and report it.
Response: 71.8

Prompt: What do we get for O=c1cc(-c2ccc(O)c(O)c2)oc2cc(OC3OC(CO)C(O)C(O)C3O)cc(O)c12 (stereo not given) [Luteolin 7-glucoside] ?
Response: 62.2

Prompt: Please do the same for COc1cc(C(=O)O)ccc1O as well.
Response: 44.7

Prompt: Let us now turn to OCCc1ccc(O)cc1
Response: 38.7

Prompt: And for O=C(O)C=Cc1ccccc1 [Cinnamic acid-trans] ?
Response: 92.9

Prompt: // same read-out, input: COc1cc(C=CC(=O)O)cc(OC)c1OC
Response: 90.1

====

- Method Summary: RP, Agilent InfinityLab Poroshell 120 EC-C18, 100 × 3 mm, 2.7 µm, 25 °C, 0.4 mL/min, estimated dead time 1.1 min; A: water + 0.1% formic acid, pH 3; B: acetonitrile + 0.1% formic acid, pH 3; gradient (min/%B) 0/5 10/25 20/40 24/90 25/90 26/5 30/5
- Condition Parameters: stereoisomer not certain
// values below are reported LC retention time
Express your answer in min, writing the number without its unit.

Answered cases to consult:
1) COc1cc(/C=C/C(=O)O)ccc1O [Ferulic acid] = 9.17
2) O=S(=O)(O)Oc1cc(O)cc(C=Cc2ccc(O)cc2)c1 [Resveratrol 3-O-sulfate] = 8.93
3) O=c1oc2cc(OS(=O)(=O)O)ccc2c2ccc(O)cc12 [Urolithin A-3-sulfate] = 9.67

Prompt: Quick check: LC retention time of COc1ccc(C2CC(=O)c3c(O)cc(O)cc3O2)cc1OC1OC(C(=O)O)C(O)C(O)C1O (centres undefined) [Hesperetin 3'-O-glucuronide] ?
Response: 12.2
